ASSAY_CONTEXT: in PEG-400, 318.15 K
RESULT_TYPE: solubility (mole fraction)
The reply should be a number, written without any unit.

So for CCOc1ccc(C2NC(=O)NC=C2C(=O)c2cc(OC)c(OC)c(OC)c2)cc1 (stereo unspecified) , the logged solubility (mole fraction) turned out to be 0.0122

====

ASSAY_CONTEXT: in PEG-400, 308.15 K
RESULT_TYPE: solubility (mole fraction)
The reply should be a number, written without any unit.

So for CCOc1ccc(C2NC(=O)NC=C2C(=O)c2cc(OC)c(OC)c(OC)c2)cc1 (stereo unspecified) , the logged solubility (mole fraction) turned out to be 0.0083

====

ASSAY_CONTEXT: in water, 318.15 K
RESULT_TYPE: solubility (mole fraction)
The reply should be a number, written without any unit.

So for CCOc1ccc(C2NC(=O)NC=C2C(=O)c2cc(OC)c(OC)c(OC)c2)cc1 (stereo unspecified) , the logged solubility (mole fraction) turned out to be 2.57e-05

====

ASSAY_CONTEXT: in PEG-400, 313.15 K
RESULT_TYPE: solubility (mole fraction)

So for CCOc1ccc(C2NC(=O)NC=C2C(=O)c2cc(OC)c(OC)c(OC)c2)cc1 (stereo unspecified) , the logged solubility (mole fraction) turned out to be 0.0104

====

ASSAY_CONTEXT: in water, 298.15 K
RESULT_TYPE: solubility (mole fraction)
The reply should be a number, written without any unit.

So for CCOc1ccc(C2NC(=O)NC=C2C(=O)c2cc(OC)c(OC)c(OC)c2)cc1 (stereo unspecified) , the logged solubility (mole fraction) turned out to be 8.04e-06
